- System: EfPiwi piRISC loaded with piRNA #1 (26 nt)
- protocol: pre-steady-state target cleavage rate (min^-1); auxiliary factor: 500 nM Ephydatia muelleri Gtsf1; guide: piRNA #1 5'p-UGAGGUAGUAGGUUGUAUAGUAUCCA; MIWI and MILI are mouse PIWI proteins and EfPiwi is from a freshwater sponge; tags in brackets are library labels; higher = faster piRNA-guided slicing of the target
Parameter: pre-steady-state target cleavage rate. Scope: all listed entries.
property: pre-steady-state target cleavage rate

>>> readout_number("GGAGAGGAUACUAGUACAACCUACUACCUCA")
0.0114
>>> readout_number("GGAGACGAUACUAGACAACCUACUACCUCA")
0.00452
>>> readout_number("GGAGACCUAUCUAUACAACCUACUACCUCA [g2:g20:cont:t1A]")
0.0119
>>> readout_number("GGAGAGGAUACUAUACACCCUACUACCUCA")
0.0114
>>> readout_number("GGAGAGGAAACUAUACAACGUACUACCUCA")
0.00339
>>> readout_number("GGAGACCAUAGUAUACAACCUACUACGUCA")
0.00463
>>> readout_number("GGAGAGGAAACUAUACAACCAACUACCUCA")
0.00523

Every entry's value here was drawn from the supplement of paper PMC10338343.
